B1: Neutrophil cytosol factor 2, residues 456 to 514; numbered along this chain, P19878 (parent)
chain: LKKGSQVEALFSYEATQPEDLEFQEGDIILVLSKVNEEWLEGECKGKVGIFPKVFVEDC

Variants of: B1
experimental details: abundance fitness (aPCA) (normalised: wild type 0, dead -1); higher = more abundant; growth selection in yeast, the domain comes from the species named
cond: Homo sapiens
Listed next: entries and their corresponding abundance fitness.
Enter a number only.

Ask: Please report the recorded abundance fitness for T16C .
Result: -0.426

Ask: Please report the recorded abundance fitness for Q24W .
Result: -0.14

Ask: Please report the recorded abundance fitness for E14R .
Result: 0.096

Ask: Please report the recorded abundance fitness for L1E .
Result: 0.143

Ask: Please report the recorded abundance fitness for F23C .
Result: -0.218

Ask: Please report the recorded abundance fitness for A15H .
Result: -0.954

Ask: Please report the recorded abundance fitness for D27R .
Result: -0.323

Ask: Please report the recorded abundance fitness for L1G .
Result: -0.053

Ask: Please report the recorded abundance fitness for P18V .
Result: -0.648

Ask: Please report the recorded abundance fitness for G42M .
Result: -0.954

Ask: Please report the recorded abundance fitness for G49W .
Result: -0.137

Ask: Please report the recorded abundance fitness for E57N .
Result: -0.194

Ask: Please report the recorded abundance fitness for W39R .
Result: -0.893

Ask: Please report the recorded abundance fitness for Y13T .
Result: -0.644

Ask: Please report the recorded abundance fitness for V31I .
Result: 0.342

Ask: Please report the recorded abundance fitness for E38S .
Result: -0.701

Ask: Please report the recorded abundance fitness for K53F .
Result: -0.857

Ask: Please report the recorded abundance fitness for Y13L .
Result: -0.573
